System: biotin-Pu24 (VEGF G-quadruplex) (DNA, G4) CCGGGGCGGGCCGGGGGCGGGGTC
PROTOCOL_DESCRIPTION: SPR
TEST_PARAMETERS: 100 mM KCl; 20 mM Tris-HCl pH 7.4, 25 °C; tested up to 50 μM
The molecules listed here are annotated with their KD.

{"STRUCTURE_SMILES": "CCN(CC)CCNC(=O)C1=C[C@]2(C)[C@H]3CC=C4[C@@H]5CC(C)(C)CC[C@]5(C(=O)OC)CC[C@@]4(C)[C@]3(C)CC[C@H]2C(C)(C)C1=O", "KD": "> 50 µM"}
{"STRUCTURE_SMILES": "CN(C)CCn1cc(CNC(=O)[C@]23CCC(C)(C)C[C@H]2C2=CC[C@@H]4[C@@]5(C)CC[C@H](O)C(C)(C)[C@@H]5CC[C@@]4(C)[C@]2(C)CC3)nn1", "KD": "> 50 µM"}
{"STRUCTURE_SMILES": "CC1(C)CC[C@]2(C(=O)NCCNS(=O)(=O)N3CCOCC3)CC[C@]3(C)C(=CC[C@@H]4[C@@]5(C)CC[C@H](O)C(C)(C)[C@@H]5CC[C@]43C)[C@@H]2C1", "KD": "> 50 µM"}
{"STRUCTURE_SMILES": "CC1(C)CC[C@]2(C(=O)N3CCN(C(=O)Cn4cnc5[nH]c(=O)[nH]c(=O)c54)CC3)CC[C@]3(C)C(=CC[C@@H]4[C@@]5(C)CC[C@H](O)C(C)(C)[C@@H]5CC[C@]43C)[C@@H]2C1", "KD": "> 50 µM"}
